method_description: Partition of components between water+sulfolane phase and methylnaphthalene phase after dehydration reaction
Assay type: physicochemical
reported_conditions: concentration in methylnaphthalene phase, room temperature
compounds and their reported [conc]MN
I only need the number, in mM, no unit after it.

Consider the following illustrative entries.
O=S1(=O)CCCC1: 370
O=Cc1ccco1: 144
OB(O)c1ccccc1: 340

Exam item: Which value of [conc]MN has been reported for O in the records?
Marked response: 92

====

method_description: Partition of components between water+sulfolane phase and methylnaphthalene phase after dehydration reaction
Type: physicochemical
reported_conditions: content in methylnaphthalene phase, room temperature
As shown below, each of these compounds has a reported wt. %MN value.
Answer with the number, then the unit.

Exam item: Entry O=Cc1ccco1 has what wt. %MN?
Marked response: 1.3 wt. %

====

method_description: Partition of components between water+sulfolane phase and methylnaphthalene phase after dehydration reaction
Assay type: physicochemical
reported_conditions: concentration in aqueous (water+sulfolane) phase, room temperature
endpoint: [Conc]water+S (mM)
Your answer is read as mM, so omit the unit and give the number.

Record excerpt, results attached:
O=Cc1ccco1: 103
Cc1cccc2ccccc12: 3

# input for lookup
Exam item: Given the entry OB(O)c1ccccc1 , report its measured [Conc]water+S.
Marked response: 125

====

method_description: Partition of components between water+sulfolane phase and methylnaphthalene phase after dehydration reaction
Format: physicochemical
reported_conditions: ratio of absolute amounts polar/apolar phase, room temperature; polar phase volume twice the apolar
Pmol overview
Number only, please.

Exam item: Endpoint output: Pmol of O [water] . Value?
Marked response: 601

Exam item: Item: Cc1cccc2ccccc12 [1-methylnaphtalene]
Marked response: 0.0009

Exam item: Next compound: OB(O)c1ccccc1 [phenylboronic acid]
Marked response: 0.74

Exam item: Would you mind doing O=S1(=O)CCCC1 [sulfolane] as well?
Marked response: 13.8

Exam item: Would you kindly repeat that for O=Cc1ccco1 [Furfural] ?
Marked response: 1.43

====

Entries and their wt. %MN
method_description: Partition of components between water+sulfolane phase and methylnaphthalene phase after dehydration reaction
Assay type: physicochemical
reported_conditions: content in methylnaphthalene phase, room temperature
Numeric answer only, unit wt. % assumed.

Solved entries:
O: 0.15
Cc1cccc2ccccc12: 91
OB(O)c1ccccc1: 3.7

Turning now to a further record.
Exam item: Give its wt. %MN value. Item: O=S1(=O)CCCC1
Marked response: 4
